systemTested: T1, Human ST2 (human, UniProt Q01638 19-328, limits assumed)
T1 construct: also called human ST2 protein; Interleukin 1 receptor-like 1
T1 sequence (looked up): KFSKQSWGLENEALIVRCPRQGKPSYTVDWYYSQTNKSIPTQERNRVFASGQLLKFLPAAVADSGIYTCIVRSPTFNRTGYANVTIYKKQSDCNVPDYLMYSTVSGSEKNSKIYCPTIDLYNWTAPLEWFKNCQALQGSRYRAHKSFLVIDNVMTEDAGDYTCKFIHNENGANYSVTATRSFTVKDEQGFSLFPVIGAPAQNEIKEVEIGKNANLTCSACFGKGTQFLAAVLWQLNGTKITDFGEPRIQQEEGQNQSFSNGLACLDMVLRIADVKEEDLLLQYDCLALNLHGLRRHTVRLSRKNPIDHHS
measurementProtocol: SPR (Carterra), antibody immobilized, ST2 analyte
Labelling field: enter T if recorded koff is less than 0.05 s⁻¹. Enter F if it equals or exceeds that cut-off.

Input Human ST2 IgG1 Antibody 9 (antibody, V domains shown, IgG1; also called ST2 Antibody 9) VH: EVQLLESGGGLVQPGGSLRLSCAASGFAFSSHWMHWVRQAPGKGLEWVATISSGSHSIHYADSVKGRFTISRDNSKNTLYLQMNSLRAEDTAVYYCAREAGTSYYYYGMDVWGKGTTVTVSS VL: DIQMTQSPSSLSASVGDRVTITCQASQDIRNYLNWYQQKPGKAPKLLIYKASSLESGVPSRFSGSGSGTDFTLTISSLQPEDFATYYCQQSYSTPPTFGGGTKVEIKR ; condition: koff strictly below 0.05 s⁻¹. Does it hold?
T

Input Human ST2 IgG1 Antibody 22 (antibody, V domains shown, IgG1; also called ST2 Antibody 22) VH: EVQLLESGGGLVQPGGSLRLSCAASGFKFRTFWMNWVRQAPGKGLEWVSVISNGGDATHYADSVKGRFTISRDNSKNTLYLQMNSLRAEDTAVYYCARVDCSGGSCYLGYWGQGTLVTVSS VL: DIQMTQSPSSLSASVGDRVTITCRASESIGRYLNWYQQKPGKAPKLLIYGTSNLESGVPSRFSGSGSGTDFTLTISSLQPEDFATYYCQQSYSTPPTFGQGTKVEIKR ; condition: koff strictly below 0.05 s⁻¹. Does it hold?
T

Input Human ST2 IgG1 Antibody 61 (antibody, V domains shown, IgG1; also called ST2 Antibody 61) VH: QVQLVQSGAEVKKPGSSVKVSCKASGGTFSNYAISWVRQAPGQGLEWMGGIIPVFGTATYAQKFQGRVTITADESTSTAYMELSSLRSEDTAVYYCARVTAMGVGWYFDLWGRGTLVTVSS VL: DIVMTQSPLSLPVTPGEPASISCRSSQSLLHSNGYNYLDWYLQKPGQSPQLLIYAASSLQSGVPDRFSGSGSGTDFTLKISRVEAEDVGVYYCMQSLQTPPTFGQGTKLEIKR ; condition: koff strictly below 0.05 s⁻¹. Does it hold?
F

Input Human ST2 IgG1 Antibody 34 (antibody, V domains shown, IgG1; also called ST2 Antibody 34) VH: QVQLVQSGAEVKKPGASVKVSCKASGQTFTDYAINWVRQAPGQGLEWMGWMNPNSGNTGYAQKFQGRVTMTRDTSTSTVYMELSSLRSEDTAVYYCARETLEQQLPFDYWGQGTLVTVSS VL: DIQMTQSPSSLSASVGDRVTITCRASQSISSWLAWYQQKPGKAPKLLIYAASTLQSGVPSRFSGSGSGTDFTLTISSLQPEDFATYYCQQYYSTLYTFGQGTKVEIKR ; condition: koff strictly below 0.05 s⁻¹. Does it hold?
T

Input Human ST2 IgG1 Antibody 8 (antibody, V domains shown, IgG1; also called ST2 Antibody 8) VH: QVQLVQSGAEVKKPGASVKVSCKASGGTFSSYAISWVRQAPGQGLEWMGWISPDNGNTNYAQKLQGRVTMTRDTSTSTVYMELSSLRSEDTAVYYCARLAYDTGYYYYYYMDVWGKGTTVTVSS VL: DIVMTQSPLSLPVTPGEPASISCRSSQSLLHSNGYNYLDWYLQKPGQSPQLLIYAASTLQSGVPDRFSGSGSGTDFTLKISRVEAEDVGVYYCMQGTHWPLTFGQGTKVEIKR ; condition: koff strictly below 0.05 s⁻¹. Does it hold?
T
